I'd appreciate it if you could supply Tm values for the items below.
assay: melting temperature; UV melt of duplexes; conditions: sodium 0.62 M; strand 2 µM
One number for each entry, in °C.

>  <substance>
AAGGCGAGTCAGGCTCAGTG+CACTGAGCCTGACTCGCCTT ((((((((((((((((((((+))))))))))))))))))))

>  <unit.spec>
°C

>  <Tm>
75.1

$$$$

Answer for every listed entry: what is its Tm? The entries follow.
1. GCGAGCGACAGGTTACTTGGCTGAT+ATCAGCCAAGTAACCTGTCGCTCGC (((((((((((((((((((((((((+)))))))))))))))))))))))))
2. CGAGCTTATCCCTATCCCTC+GAGGGATAGGGATAAGCTCG ((((((((((((((((((((+))))))))))))))))))))
3. ACCGACGACGCTGATCCGAT+ATCGGATCAGCGTCGTCGGT ((((((((((((((((((((+))))))))))))))))))))
4. CGGGACCAACTAAAGGAAAT+ATTTCCTTTAGTTGGTCCCG ((((((((((((((((((((+))))))))))))))))))))
5. CTCAACTTGCGGTAAATAAATCGCTTAATC+GATTAAGCGATTTATTTACCGCAAGTTGAG ((((((((((((((((((((((((((((((+))))))))))))))))))))))))))))))
6. GTTATTCCGCAGTCCGATGGCAGCAGGCTC+GAGCCTGCTGCCATCGGACTGCGGAATAAC ((((((((((((((((((((((((((((((+))))))))))))))))))))))))))))))

**Result**
78.6
68.5
76.8
66.7
74.4
82.4

Answer for every listed entry: what is its Tm? The entries follow.
1. AATATCTCTCATGCGCCAAGCTACA+TGTAGCTTGGCGCATGAGAGATATT (((((((((((((((((((((((((+)))))))))))))))))))))))))
2. TTCAAGTTAAACATTCTATC+GATAGAATGTTTAACTTGAA ((((((((((((((((((((+))))))))))))))))))))
3. AAAGTACATCAACATAGAGAATTGCATTTC+GAAATGCAATTCTCTATGTTGATGTACTTT ((((((((((((((((((((((((((((((+))))))))))))))))))))))))))))))
4. ACAGCGAATGGACCTACGTGGCCTT+AAGGCCACGTAGGTCCATTCGCTGT (((((((((((((((((((((((((+)))))))))))))))))))))))))
5. GTTCTATACTCTTGAAGTTGATTAC+GTAATCAACTTCAAGAGTATAGAAC (((((((((((((((((((((((((+)))))))))))))))))))))))))
6. GATATAGCAAAATTCTAAGTTAATA+TATTAACTTAGAATTTTGCTATATC (((((((((((((((((((((((((+)))))))))))))))))))))))))

**Result**
1. 75.1
2. 59.4
3. 71.3
4. 79.4
5. 66.1
6. 63.3
